B1: Azoarcus group I ribozyme (parent)
chain: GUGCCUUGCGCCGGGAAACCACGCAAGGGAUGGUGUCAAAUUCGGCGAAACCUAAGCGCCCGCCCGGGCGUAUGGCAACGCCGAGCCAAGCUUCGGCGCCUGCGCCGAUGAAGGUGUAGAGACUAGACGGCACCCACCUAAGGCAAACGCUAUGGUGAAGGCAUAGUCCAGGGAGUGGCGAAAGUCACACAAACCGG

variants of: B1; assay: reverse-splicing fitness (ratio to wild type); higher = more active; in vitro selection; Mg2+ level not given
Assay Metric: reverse-splicing fitness
Give the figure by itself; no unit, no explanation.

- Mutation Key: "C82G A111U A120G C150U C169U"
  Quantitative Readout: 0.0101
- Mutation Key: "C82A A111U A120C A145G C150A C169A U176A"
  Quantitative Readout: 0.0221
- Mutation Key: "C82G A111G A120U C150A C169A U176C"
  Quantitative Readout: 0.00424
- Mutation Key: "A120C C169G U176C"
  Quantitative Readout: 0.0166
- Mutation Key: "A111G A120C A145G C169A U176G"
  Quantitative Readout: 0.00366
- Mutation Key: "C82G A111C A120U A145G U176G"
  Quantitative Readout: 0.004
- Mutation Key: "C82G A111G A120U A145U C150U C169G"
  Quantitative Readout: 0.00324
- Mutation Key: "C82G A111G A120C A145U C150A C169U"
  Quantitative Readout: 0.00952

GET /values?readout=reverse-splicing fitness&item= C82A A111U C150U C169A
0.0102

Likewise for C82A A120U A145C C150G C169A U176A ?
0.00254

This collection of values is drawn from the RNAGym collection of RNA variant scans (doi:10.1093/molbev/msab373).
